TESTED ON: α1
ASSAY PROCEDURE: Receptor binding, [3H]prazosin, human cerebral cortex membranes (HCC)
RECORDED CONDITIONS: 22° C., 30 min
pKi: −log10 of the molar value.
Classify as follows. Reported pKi greater than or equal to 5: T. Reported pKi below: F.

Problem: Threshold query (pKi >= 5) on `Brc1c(NC2=NCCN2)ccc2c1NCCN2`
Result: T

Problem: Threshold query (pKi >= 5) on `COc1nc(C)nc(Cl)c1NC1=NCCN1`
Result: F

Problem: Threshold query (pKi >= 5) on `c1cc2c(cc1NC1=NCCN1)NCCN2`
Result: T

Data origin: patent US6087361A
